Experiment: Tmax in CD1 mouse at 1 mg/kg, po measured for 24 hrs by LC-MS/MS analysis
Type: ADME, organism-based
Conditions: in vivo

- SUBSTANCE SMILES: "C[C@@H](c1cnn(C)c1)n1cc(C(F)(F)F)cc(-c2cccc([C@]3(c4nncn4C)C[C@@H](C)C3)c2)c1=O"
  Tmax, min: 4.98

====

Assay: AUC (infinity) in Wistar Han rat at 1 mg/kg, po measured for 24 hrs by LC-MS/MS analysis
Assay type: ADME, organism-based
Conditions: in vivo

- SUBSTANCE SMILES: "C[C@@H](c1cnn(C)c1)n1cc(C(F)(F)F)cc(-c2cccc([C@]3(c4nncn4C)C[C@@H](C)C3)c2)c1=O"
  AUC(0-inf) [ng·h/mL]: 46

====

Assay: Clearance in rat hepatocytes assessed as measured per million cells at 0.1 to 1 uM measured for 120 mins by LC-MS/MS analysis
Format: ADME, cell-based, Hepatocyte
Conditions: dose 0.1-1 µM

- SUBSTANCE SMILES: "Cn1cc(C(F)(F)F)cc(-c2cccc([C@]3(c4nncn4C)C[C@@H](C)C3)c2)c1=O"
  hepatocyte CLint at up to 1 µM [µL/min/1e6 cells]: 16
- SUBSTANCE SMILES: "Cc1nnc(Cn2cc(C(F)(F)F)cc(-c3cccc([C@]4(c5nncn5C)C[C@@H](C)C4)c3)c2=O)o1"
  hepatocyte CLint at up to 1 µM [µL/min/1e6 cells]: 7.8
- SUBSTANCE SMILES: "Cn1cc(Cn2cc(C(F)(F)F)cc(-c3cccc([C@]4(c5nncn5C)C[C@@H](C)C4)c3)c2=O)cn1"
  hepatocyte CLint at up to 1 µM [µL/min/1e6 cells]: 9.7
- SUBSTANCE SMILES: "CN1CC[C@H](Cn2cc(C(F)(F)F)cc(-c3cccc([C@]4(c5nncn5C)C[C@@H](C)C4)c3)c2=O)C1"
  hepatocyte CLint at up to 1 µM [µL/min/1e6 cells]: 2.4
- SUBSTANCE SMILES: "CC#C[C@H](C)n1cc(C(F)(F)F)cc(-c2cccc([C@]3(c4nncn4C)C[C@@H](C)C3)c2)c1=O"
  hepatocyte CLint at up to 1 µM [µL/min/1e6 cells]: 24
- SUBSTANCE SMILES: "Cn1cc(Cn2cc(C(F)(F)F)cc(-c3cccc([C@]4(c5nncn5C)C[C@@H](C)C4)c3)c2=O)nn1"
  hepatocyte CLint at up to 1 µM [µL/min/1e6 cells]: 8.1

====

Target: E3 ubiquitin-protein ligase CBL-B (Homo sapiens, UniProt Q13191)
Sequence (Q13191 whole entry, the tested form may be a part): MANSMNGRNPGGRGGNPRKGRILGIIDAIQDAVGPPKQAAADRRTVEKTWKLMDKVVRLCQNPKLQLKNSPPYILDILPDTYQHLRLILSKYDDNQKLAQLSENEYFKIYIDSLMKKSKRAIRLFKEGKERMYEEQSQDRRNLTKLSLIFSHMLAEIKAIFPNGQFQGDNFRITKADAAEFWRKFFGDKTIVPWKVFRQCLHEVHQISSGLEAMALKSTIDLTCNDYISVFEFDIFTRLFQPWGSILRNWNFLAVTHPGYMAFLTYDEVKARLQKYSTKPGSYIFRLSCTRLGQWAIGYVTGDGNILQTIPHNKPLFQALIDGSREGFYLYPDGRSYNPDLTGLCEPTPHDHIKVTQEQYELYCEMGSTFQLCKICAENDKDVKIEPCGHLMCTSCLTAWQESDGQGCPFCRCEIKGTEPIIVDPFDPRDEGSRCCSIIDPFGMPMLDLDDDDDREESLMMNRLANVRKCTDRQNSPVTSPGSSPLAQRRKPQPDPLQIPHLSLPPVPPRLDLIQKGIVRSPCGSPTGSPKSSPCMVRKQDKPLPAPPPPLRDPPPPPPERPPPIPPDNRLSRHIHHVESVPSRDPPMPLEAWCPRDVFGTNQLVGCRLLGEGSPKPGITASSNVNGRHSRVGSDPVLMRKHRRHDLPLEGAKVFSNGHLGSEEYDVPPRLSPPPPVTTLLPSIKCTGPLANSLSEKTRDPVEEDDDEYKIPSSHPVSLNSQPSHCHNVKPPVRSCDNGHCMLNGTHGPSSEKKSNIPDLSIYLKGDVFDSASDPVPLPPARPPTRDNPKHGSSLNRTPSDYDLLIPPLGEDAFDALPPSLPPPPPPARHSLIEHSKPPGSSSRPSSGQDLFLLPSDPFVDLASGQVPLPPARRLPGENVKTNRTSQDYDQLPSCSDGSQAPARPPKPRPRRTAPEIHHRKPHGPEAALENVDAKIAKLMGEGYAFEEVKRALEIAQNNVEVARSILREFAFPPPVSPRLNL
Assay: Inhibition of biotinylated recombinant Cbl-b (36 to 427 residues)(unknown origin) expressed in Escherichia coli BL21(DE3) Tuner cells using a FAM-labeled probe by TR-FRET assay
pIC50: −log10 of the molar value.
Mark 1 for reported pIC50 of 7 or greater; mark 0 for anything smaller.

- SUBSTANCE SMILES: "CC#CCn1cc(C(F)(F)F)cc(-c2cccc([C@]3(c4nncn4C)C[C@@H](C)C3)c2)c1=O"
  ASSIGNED CLASS: 1
- SUBSTANCE SMILES: "CC#C[C@H](C)n1cc(C(F)(F)F)cc(-c2cccc([C@]3(c4nncn4C)C[C@@H](C)C3)c2)c1=O"
  ASSIGNED CLASS: 1
- SUBSTANCE SMILES: "Cn1cc(Cn2cc(C(F)(F)F)cc(-c3cccc([C@]4(c5nncn5C)C[C@@H](C)C4)c3)c2=O)nn1"
  ASSIGNED CLASS: 1
- SUBSTANCE SMILES: "C[C@@H](C#N)n1cc(C(F)(F)F)cc(-c2cccc([C@]3(c4nncn4C)C[C@@H](C)C3)c2)c1=O"
  ASSIGNED CLASS: 1
- SUBSTANCE SMILES: "Cn1cnnc1[C@]1(c2cccc(-c3cc(C(F)(F)F)ccc3O)c2)C[C@H](C)C1"
  ASSIGNED CLASS: 0
- SUBSTANCE SMILES: "Cn1cnnc1[C@]1(c2cccc(-c3cc(OC(F)(F)F)c[nH]c3=O)c2)C[C@H](C)C1"
  ASSIGNED CLASS: 0
